The origin of these recorded values is patent US20110028441A1.

# target under test: PDE4B (Homo sapiens, UniProt Q07343)
# Sequence (Q07343 whole entry, species assumed): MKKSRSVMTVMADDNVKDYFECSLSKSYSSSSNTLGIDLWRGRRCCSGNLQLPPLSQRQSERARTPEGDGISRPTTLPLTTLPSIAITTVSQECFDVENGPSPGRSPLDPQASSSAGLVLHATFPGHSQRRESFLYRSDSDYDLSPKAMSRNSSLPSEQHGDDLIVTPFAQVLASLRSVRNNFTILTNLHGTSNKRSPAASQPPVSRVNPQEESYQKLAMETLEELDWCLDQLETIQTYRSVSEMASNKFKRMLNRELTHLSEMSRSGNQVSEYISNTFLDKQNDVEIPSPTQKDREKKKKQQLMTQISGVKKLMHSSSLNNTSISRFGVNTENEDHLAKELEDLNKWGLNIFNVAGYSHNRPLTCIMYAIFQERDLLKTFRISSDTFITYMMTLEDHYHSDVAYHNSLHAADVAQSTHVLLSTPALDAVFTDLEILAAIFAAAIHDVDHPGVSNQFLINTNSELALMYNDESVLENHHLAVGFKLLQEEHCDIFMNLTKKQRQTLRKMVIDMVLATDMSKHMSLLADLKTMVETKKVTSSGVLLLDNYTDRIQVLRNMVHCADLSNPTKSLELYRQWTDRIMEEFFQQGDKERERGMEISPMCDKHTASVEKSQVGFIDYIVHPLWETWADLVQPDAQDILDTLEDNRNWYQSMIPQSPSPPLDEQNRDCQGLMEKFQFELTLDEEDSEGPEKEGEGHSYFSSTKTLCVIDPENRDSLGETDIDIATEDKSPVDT
# protocol: Scintillation Proximity (SPA) Assay of PDE4B enzyme inhibition
# Type: biochemical
# reported conditions: test substance 1 μM; one hour incubation of [H3]-cAMP with PDE4B enzyme at 30° C.; read-out: % Inhibition PDE4B @ 1 μM
assay metric: inhibition at 1 µM (%)

[[record]]
compound = "Cc1cc(Cl)ccc1N1CCN(c2nc3c(c(NC4CCOCC4)n2)[S+]([O-])CC3)CC1 (stereo not drawn) [Example 98]"
assay_metric = "inhibition at 1 µM"
assay_value = 96

[[record]]
compound = "[O-][S+]1CCc2nc(N3CCN(c4ccccc4Cl)CC3)nc(Nc3cccc(F)c3)c21 (stereo not drawn) [Example 24]"
assay_metric = "inhibition at 1 µM"
assay_value = 95

[[record]]
compound = "[O-][S+]1CCc2nc(N3CCN(c4ccc(Cl)cc4F)CC3)nc(Nc3cccc(F)c3)c21 (stereo not drawn) [Example 109]"
assay_metric = "inhibition at 1 µM"
assay_value = 92

[[record]]
compound = "[O-][S+]1CCc2nc(N3CCN(c4ccc(Cl)c(F)c4)CC3)nc(NC3(CO)CC3)c21 (stereo not drawn) [Example 61]"
assay_metric = "inhibition at 1 µM"
assay_value = 95

[[record]]
compound = "Cc1cc(Cl)ccc1N1CCN(c2nc3c(c(Nc4cccc(F)c4)n2)[S+]([O-])CC3)CC1 (stereo not drawn) [Example 67]"
assay_metric = "inhibition at 1 µM"
assay_value = 94

[[record]]
compound = "N#Cc1ccccc1N1CCN(c2nc3c(c(Nc4cccc(F)c4)n2)[S+]([O-])CC3)CC1 (stereo not drawn) [Example 22]"
assay_metric = "inhibition at 1 µM"
assay_value = 97

[[record]]
compound = "[O-][S+]1CCc2nc(N3CCN(c4ccc(Cl)c(F)c4)CC3)nc(NC3CCOCC3)c21 (stereo not drawn) [Example 62]"
assay_metric = "inhibition at 1 µM"
assay_value = 95

[[record]]
compound = "[O-][S+]1CCc2nc(N3CCN(c4ccc(Cl)c(Cl)c4)CC3)nc(NC3CCOCC3)c21 (stereo not drawn) [Example 58]"
assay_metric = "inhibition at 1 µM"
assay_value = 96

[[record]]
compound = "CC(C)C(CO)Nc1nc(N2CCN(c3ccc(Cl)c(F)c3)CC2)nc2c1[S+]([O-])CC2 (stereo not drawn) [Example 60]"
assay_metric = "inhibition at 1 µM"
assay_value = 94

